- target_system: Kir1.1 (ROMK1) (Homo sapiens (Human))
- run_description: Electrophysiology Assay (whole cell voltage clamp, IonWorks Quattro)
- Assay type: cell-based
- particulars: Chinese hamster ovary cells stably expressing Kir1.1; block during voltage step to 0 mV; read-out: EP Assay IC50
- Procedure: Several assays may be used to measure functional inhibition of the ROMK channel by compounds of the instant invention. One assay that can be used is an electrophysiology assay that measures the electrical current that is generated as potassium permeates through the channel. […] Voltage protocols and current recordings were performed using the IonWorks® HT software/hardware system. […] Current amplitudes were measured using the IonWorks® software. […]
measured_metric: log10 of IC50 (log10 of the value in nM)
Log10 applied to IC50; unit prior to transform: nM.

Please review the following examples before continuing.
[[record]]
compound = "Cc1c([C@@H](O)CN2CCN(C[C@H](O)c3ccc4c(c3C)COC4=O)C(C)(C)C2)ccc2c1COC2=O [Example 2]"
measured_number = 1.61

[[record]]
compound = "Cc1c([C@@H](O)CN2[C@@H]3CC[C@H]2CN(c2ccc(C#N)cn2)C3)ccc2c1COC2=O [Example 10]"
measured_number = 2.50

[[record]]
compound = "CCc1c(C(O)CN2CCN(CCc3ccc4c(c3)CCOC4=O)CC2)ccc2c1COC2=O (stereo not shown) [Example 32]"
measured_number = 1.66

[[record]]
compound = "Cc1c([C@@H](O)CN2[C@@H]3CC[C@H]2CN(C(=O)c2ccc(-n4cnnn4)nc2)C3)ccc2c1COC2=O [Example 12]"
measured_number = 2.15

[[record]]
compound = "Cc1c([C@@H](O)CN2CCN(C[C@H](O)c3ccc4c(c3)C[C@H](C)OC4=O)CC2)ccc2c1COC2=O (single isomer, unassigned) [Example 37B]"
measured_number = 1.50


Entry Cc1c([C@@H](O)CN2CCN(C[C@H](O)c3ccc4c(c3)C[C@@H](C)OC4=O)CC2)ccc2c1COC2=O (single isomer, unassigned) [Example 38A] , log10 of IC50 reported as 1.24

Entry Cc1c([C@@H](O)CN2CCN(C[C@H](O)c3ccc4c(c3)C[C@H](C)OC4=O)CC2)ccc2c1COC2=O (single isomer, unassigned) [Example 37A] , log10 of IC50 reported as 1.85

Entry Cc1c([C@@H](O)CN2CC3COCC(C2)N3C[C@H](O)c2ccc3c(c2C)COC3=O)ccc2c1COC2=O [Example 18] , log10 of IC50 reported as 1.48

Entry Cc1cc(-n2cnnn2)ncc1[C@@H](O)CN1CCN(C[C@H](O)c2ccc3c(c2C)COC3=O)CC1 (single isomer, unassigned) [Example 35A] , log10 of IC50 reported as 1.46

Entry Cc1nc(-n2cnnn2)ccc1[C@@H](O)CN1CCN(C[C@H](O)c2ccc3c(c2C)COC3=O)CC1 (single isomer, unassigned) [Example 36B] , log10 of IC50 reported as 1.38

Entry Cc1nc(C(O)CN2C3CCC2C2CCC3N2C[C@H](O)c2ccc3c(c2C)COC3=O)ccc1C#N (stereo partly shown) [Example 7] , log10 of IC50 reported as 1.65

Entry Cc1c([C@H](O)CN2CCN(CCc3ccc4c(c3)C[C@@H](C)OC4=O)CC2)ccc2c1COC2=O [Example 29] , log10 of IC50 reported as 2.16

Entry Cc1c([C@@H](O)CN2CCN(C[C@H](O)c3ccc4c(c3C)COC4=O)C3(CCCC3)C2)ccc2c1COC2=O [Example 1] , log10 of IC50 reported as 2.13

----------
- target_system: Kir1.1 (ROMK1) (Homo sapiens (Human), UniProt P48048)
- Sequence (P48048 whole entry, species assumed): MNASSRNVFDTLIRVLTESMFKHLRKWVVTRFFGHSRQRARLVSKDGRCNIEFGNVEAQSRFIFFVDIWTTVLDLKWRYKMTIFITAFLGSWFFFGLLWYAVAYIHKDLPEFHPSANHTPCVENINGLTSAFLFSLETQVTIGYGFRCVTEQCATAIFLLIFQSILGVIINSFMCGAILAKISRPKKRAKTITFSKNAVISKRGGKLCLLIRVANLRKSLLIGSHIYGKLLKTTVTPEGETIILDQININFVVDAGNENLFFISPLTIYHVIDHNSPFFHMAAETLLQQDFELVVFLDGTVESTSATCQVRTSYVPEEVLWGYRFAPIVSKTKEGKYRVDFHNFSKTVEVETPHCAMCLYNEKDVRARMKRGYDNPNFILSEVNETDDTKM
- run_description: Electrophysiology Assay (whole cell voltage clamp, IonWorks Quattro)
- Type: cell-based
- particulars: Chinese hamster ovary cells stably expressing Kir1.1; block during voltage step to 0 mV; read-out: EP Assay IC50
Output true for records whose IC50 is lower than 30 nM, false for records at or above 30 nM.

[[record]]
molecule = "Cc1c([C@H](O)CN2CCN(CCc3ccc4c(c3)CCOC4=O)CC2)ccc2c1COC2=O"
group = "false"

[[record]]
molecule = "Cc1c([C@@H](O)CN2C[C@@H]3C[C@H]2CN3S(=O)(=O)c2ccc(C#N)cc2)ccc2c1COC2=O"
group = "false"


[ask] Check if IC50 falls below 30 nM for Cc1c([C@@H](O)CN2CCN(CCc3ccc4c(c3)CCOC4=O)CC2)ccc2c1COC2=O .
[reply] true

[ask] Check if IC50 falls below 30 nM for Cc1cc(-n2cnnn2)ncc1[C@@H](O)CN1CCN(C[C@H](O)c2ccc3c(c2C)COC3=O)CC1 (single isomer, unassigned) [Example 35B] .
[reply] false

[ask] Check if IC50 falls below 30 nM for COc1cc(C(O)CN2CCN(CC(O)c3ccc4c(c3)C[C@H](C)OC4=O)CC2)ncc1C#N (single isomer, unassigned) [Example 44A] .
[reply] false

[ask] Check if IC50 falls below 30 nM for Cc1c([C@@H](O)CN2C3COCC2CN(CC(O)c2ccc4c(c2)C[C@H](C)OC4=O)C3)ccc2c1COC2=O (single isomer, unassigned) [Example 23A] .
[reply] false
